target: recombinant, phosphorylated p38 MAPK gamma (MAPK12:Millipore) (Homo sapiens, UniProt P53778); experiment: Enzyme inhibition assay (FRET, Z-LYTE), p38 MAPK gamma; conditions: read-out: IC50 values P38γ enzyme
Sequence (P53778 whole entry): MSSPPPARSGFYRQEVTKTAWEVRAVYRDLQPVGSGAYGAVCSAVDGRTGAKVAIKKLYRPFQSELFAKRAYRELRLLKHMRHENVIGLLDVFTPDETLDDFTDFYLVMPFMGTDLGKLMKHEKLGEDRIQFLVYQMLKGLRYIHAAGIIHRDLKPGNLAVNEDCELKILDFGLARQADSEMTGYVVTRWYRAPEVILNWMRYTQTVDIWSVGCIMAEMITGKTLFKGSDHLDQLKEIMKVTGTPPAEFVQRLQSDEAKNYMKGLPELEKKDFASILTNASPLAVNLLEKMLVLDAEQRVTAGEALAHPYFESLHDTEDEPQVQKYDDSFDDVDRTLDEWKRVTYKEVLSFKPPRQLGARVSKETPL
quantity: IC50

The following compounds have reported results that may help.
input.smiles	IC50
COCC(=O)Nc1nccc(COc2ccc(NC(=O)Nc3cc(C(C)(C)C)nn3-c3ccc(C)cc3)c3ccccc23)n1	> 5 µM
CN[C@@H](C)C(=O)Nc1cc(COc2ccc(NC(=O)Nc3cc(C(C)(C)C)nn3-c3ccc(C)cc3)c3ccccc23)ccn1	< 0.5 µM
COCCOCC(=O)Nc1cnccc1COc1ccc(NC(=O)Nc2cc(C(C)(C)C)nn2-c2ccc(C)cc2)c2ccccc12	> 5 µM

Now for a further compound.
Tell me the measured IC50 of CNC(C)(C)C(=O)Nc1cc(COc2ccc(NC(=O)Nc3cc(C(C)(C)C)nn3-c3ccc(C)cc3)c3ccccc23)ccn1 , please.
< 5 µM
